- System: K4 kissing-loop RNA reporter;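 note: bound reporter read as fluorescence of individual clusters on recovered sequencing chips by microscopy, with normalized cluster intensities fitted with a binding model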
- test_description: apparent KD of K4 kissing-loop reporter; higher = weaker reporter binding
- settings: Eterna round: R107; input ligand: tryptophan 2.4 mM
experimental_readout: apparent KD of K4 kissing-loop reporter (nM)
Write the number in nM without appending the unit.

Incoming: Provide value of apparent KD of K4 kissing-loop reporter for this record tested with K4 kissing-loop RNA reporter: GCAACAUUGGCAGGAUAUCAUUCUGAGUGAUGUUCAGGGUUCAGCUAACGAAAGUUAGUUGUACCAUGAGAAGGGCUAAUGUUGC [Omei KL FMN B SS A v1]
Outgoing: 1080

Incoming: Let us now turn to UGAUAGGACAGAAGGAGCGGAGCUGGUCAAAGACCAGCAAUAACGUUGAAAGGAGUGAUGUUCCAGGUAGGUCGCUGUCCUAUCU [ArgBX 26 #SwitchBubble #StaticStem]
Outgoing: 93.7

Incoming: Let us now turn to UAGGCGGGAGAAGGAUAUCUGUGAAACCUGCUGCCCAAUAAGUGAUGUUUAUAAAGGAAGCGUCAUAGAGAAGGUCUAACAAGUA [theeternabot_sameState_KL_FMN_B_1]
Outgoing: 814

Incoming: Let us now turn to UGUGAUGUGUAGUGUUAUGUUUUGCGGGAUACCAGAGUCUUUUUAUUCCCUUGGCAGCUUGAGUGAUGUUUGAUGCUGUUGUUGU [pwwamullin]
Outgoing: 339

Incoming: Let us now turn to GUAUACAUAGAUCACCUUGUAGUGAUGUUGCGAGGACCGGUACGGCCGCCACUCGAAGUACGAAAGUACAAAGAUCUAUGUAUAC [Exclusion Trypto A - 1]
Outgoing: 45.9

Incoming: Let us now turn to GGGAGUAGUGCGGCCGCCACUGUGAAAGUAGAAGAAUAUAGUGAUGUUAUAUAGGAACAAAAGAAUAGGACCGGGCAUUAGAUUU [SSTRyptB.X]
Outgoing: 198

Incoming: Let us now turn to AGUACAAUGGCGGCCGCCACUCAAUGGGCGACCGAAAGGUCGCAUCACUCAGUGAUGUUGAGUGAGAGGACCGGGCCUUUGUACA [Omei KL Tryp B SS B v8]
Outgoing: 270

Incoming: Let us now turn to UGACUACAAAAGGAAUAAUCCUAGUGAUGUUAGGAUAUGCUGAUAAGCAGAAGGAACGGAGAUCGAAGGAUCUCAUAUGUAGUCU [whbob_Ex_FMNA__2th193]
Outgoing: 89

Incoming: Let us now turn to UGUGUUUACCUGACUCAGUGAUGUUGAGAAGGAGCGUGCUAAUGCACAGGUAGGUCGCUCAACCUAAAUUCAGGUGAGCACUAAA
Outgoing: 478

Incoming: Let us now turn to UGGACAUGACUCGAUAAGAGUCAAUGAGAUACCAGUGACGAAAGUCACCCUUGGCAGCUCAACUGCCAGUGAUGUUGGUAGUCCU [#SwitchBubble #StaticStem]
Outgoing: 566

Incoming: Let us now turn to AGAUUCGACACGGCCGCCACUCGUGGAUCUUGGUUGAGAGAUGAAAUAGAGUGAUGUUCUAAUACGAGGACCGGGUGUUGAGUCU [KL-SSTryp-B23]
Outgoing: 174

Incoming: Let us now turn to UGGAGUUGACGAAAAGUCAACUCCUGAGAUACCAGUGACGAAAGUCACCCUUGGCAGCUCACUGCCAGUGAUGUUGGAAAAUAAA [#OpenEnded 1]
Outgoing: 387

Incoming: Let us now turn to UGAUACCAGACUGAUACCAGCCAGUGAUGUUGGCUAAGCCAAAUAGGAGUCAAAGACUCCGGCCCUUGGCAGCAGUCUGGUAUCU [TheoBX 5 #SwitchBubble #StaticStem]
Outgoing: 127

Incoming: Let us now turn to GUGCAGUGAUGUUGCACGAGGAAAGACGAUACCAGCCGUAAAUAAGGCCCUUGGCAGCGUAAGCUAGCAUAAAGUAUGCUAGUCC [Onarve]
Outgoing: 85.2
